# measuredTarget: E. coli gyrase (Escherichia coli)
# testName: DNA gyrase supercoiling assay, method a
# Assay type: biochemical
// reported IC50 per item
Write the value in µM as a bare number.

Q. Request the reported IC50 associated with CC(C)Oc1c(NC(=O)c2ccc(NC(=O)[C@H](CC(N)=O)NC(=O)c3ccc(NC(=O)c4ccc([N+](=O)[O-])cc4)cc3)cc2)ccc(C(=O)Nc2ccc(C(=O)O)cc2)c1O [Compound 4]
A. 0.11

# evaluate next
Q. Request the reported IC50 associated with Cn1cc(NC(=O)C(CC(N)=O)NC(=O)c2ccc(NC(=O)c3ccc(C#N)cc3)cc2)cc1-c1nc2ccc(C(=O)Nc3ccc(C(=O)O)cc3)c(O)c2[nH]1 (centres unmarked) [Compound 56]
A. 10.9

====

// reported MIC per item
# Test system: P. aeruginosa WT PA14
# testName: MIC determination
# Assay type: cell-based, Pseudomonas aeruginosa
# measurementSetup: Pseudomonas aeruginosa, PA14, read-out: MIC P. aeruginosa WT, PA14

Q. Request the reported MIC associated with CC(C)Oc1c(NC(=O)c2ccc(NC(=O)c3ccc(NC(=O)[C@H](CC(N)=O)NC(=O)c4ccc(NC(=O)c5ccc(C#N)cn5)cc4)cc3)c(OC(C)C)c2O)ccc(C(=O)O)c1O
A. > 64 µg/mL

Q. Note, next up: CC(C)Oc1c(NC(=O)c2ccc(NC(=O)c3ccc(NC(=O)[C@H](CC(N)=O)NC(=O)c4ccc(NC(=O)c5ccc([N+](=O)[O-])cc5)cc4)cc3)c(OC(C)C)c2O)ccc(C(=O)O)c1O
A. > 64 µg/mL

====

# Format: physicochemical
propertyName: pKa

Q. Request the reported pKa associated with CC(C)Oc1c(NC(=O)c2ccc(NC(=O)[C@H](CC(N)=O)NC(=O)c3ccc(NC(=O)c4ccc([N+](=O)[O-])cc4)cc3)cc2)ccc(C(=O)Nc2ccc(C(=O)O)cc2)c1O [Compound 4]
A. < 8

====

# measuredTarget: E. coli gyrase (Escherichia coli, UniProt P0AES4)
# Sequence (P0AES4 whole entry): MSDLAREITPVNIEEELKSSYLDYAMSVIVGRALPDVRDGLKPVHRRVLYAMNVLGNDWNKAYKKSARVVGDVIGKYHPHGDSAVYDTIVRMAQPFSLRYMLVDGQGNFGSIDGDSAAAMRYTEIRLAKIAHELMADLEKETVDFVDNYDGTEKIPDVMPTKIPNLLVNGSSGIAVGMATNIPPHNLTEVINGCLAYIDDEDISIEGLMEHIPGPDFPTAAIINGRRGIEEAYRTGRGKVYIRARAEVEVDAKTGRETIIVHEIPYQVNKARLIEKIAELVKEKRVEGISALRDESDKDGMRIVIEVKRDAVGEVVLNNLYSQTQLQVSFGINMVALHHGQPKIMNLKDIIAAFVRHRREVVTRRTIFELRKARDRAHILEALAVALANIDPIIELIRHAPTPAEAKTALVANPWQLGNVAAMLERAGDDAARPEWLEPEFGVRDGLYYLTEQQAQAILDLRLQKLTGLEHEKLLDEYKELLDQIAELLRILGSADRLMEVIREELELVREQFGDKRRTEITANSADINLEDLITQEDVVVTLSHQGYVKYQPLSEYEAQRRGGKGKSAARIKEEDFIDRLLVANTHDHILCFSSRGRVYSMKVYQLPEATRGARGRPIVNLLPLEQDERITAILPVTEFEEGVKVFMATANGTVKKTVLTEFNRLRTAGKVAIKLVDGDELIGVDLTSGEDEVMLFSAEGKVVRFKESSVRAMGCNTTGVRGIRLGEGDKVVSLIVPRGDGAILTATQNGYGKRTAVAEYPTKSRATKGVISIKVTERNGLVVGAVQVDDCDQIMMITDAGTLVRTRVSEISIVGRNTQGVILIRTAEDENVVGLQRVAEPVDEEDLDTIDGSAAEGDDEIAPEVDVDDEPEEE
# testName: DNA gyrase supercoiling assay, method b
# Type: biochemical
propertyName: IC50
Number first, unit second: that is the form wanted.

Below are worked cases with known answers.
Q. Request the reported IC50 associated with C/C(=C\c1ccc(C#N)cc1)C(=O)Nc1ccc(C(=O)N[C@@H](CC(N)=O)C(=O)Nc2ccc(C(=O)Nc3ccc(C(=O)Nc4ccc(C(=O)O)c(O)c4OC(C)C)c(O)c3OC(C)C)cc2)cc1
A. 200 nM

Q. Note, next up: CC(C)Oc1c(NC(=O)c2ccc(NC(=O)c3ccc(NC(=O)[C@H](CC(N)=O)NC(=O)c4ccc(NC(=O)c5ccc([N+](=O)[O-])cc5)cc4)cc3)c(OC(C)C)c2O)ccc(C(=O)O)c1O
A. 200 nM

# evaluate next
Q. Request the reported IC50 associated with CC(C)Oc1c(NC(=O)c2ccc(NC(=O)c3ccc(NC(=O)[C@H](CC(N)=O)NC(=O)c4ccc(NC(=O)c5ccc(C#N)cc5)cc4)cc3)c(OC(C)C)c2O)ccc(C(=O)O)c1O
A. 600 nM

====

Test system E. aerogenes DSM-30053, MIC listed for each of the molecules.
Write the value in µg/mL as a bare number.

Below are worked cases with known answers.
Q. Can you look up MIC on E. aerogenes DSM-30053 for CC(C)Oc1c(NC(=O)c2ccc(NC(=O)[C@H](CC(N)=O)NC(=O)c3ccc(NC(=O)c4ccc(C#N)cc4)cc3)cc2)ccc(C(=O)Nc2ccc(C(=O)O)cc2)c1O ?
A. 0.06

Q. Note, next up: C/C(=C\c1ccc(O)cc1)C(=O)Nc1ccc(C(=O)N[C@@H](CC(N)=O)C(=O)Nc2ccc(C(=O)Nc3ccc(C(=O)Nc4ccc(C(=O)O)cc4)c(O)c3OC(C)C)cc2)cc1
A. 1

Q. Note, next up: CC(C)Oc1c(NC(=O)c2ccc(NC(=O)c3ccc(NC(=O)[C@H](CC(N)=O)NC(=O)c4ccc(NC(=O)c5ccc(C#N)s5)cc4)cc3)c(OC(C)C)c2O)ccc(C(=O)O)c1O
A. 1

Q. Note, next up: CC(C)Oc1c(-n2cc(-c3ccc(NC(=O)C(CC(N)=O)NC(=O)c4ccc(NC(=O)c5ccc(C#N)cc5)cc4)cc3)nn2)ccc(C(=O)Nc2ccc(C(=O)O)cc2)c1O (centres unmarked)
A. 1

Further cases:
Q. Can you look up MIC on E. aerogenes DSM-30053 for CC(C)Oc1c(NC(=O)c2ccc(NC(=O)c3ccc(NC(=O)[C@H](CC(N)=O)NC(=O)c4ccc(NC(=O)c5ccc(C#N)cn5)cc4)cc3)c(OC(C)C)c2O)ccc(C(=O)O)c1O ?
A. 1

This collection of values is drawn from paper PMC8148378.
